Values from patent US20200046703A1

assay: Confluent NHEK cell viability with/without 5-FU; assay type: cell-based, human; conditions: human, confluent NHEK cells; 10 μM of 5-FU; read-out: viability compared to a control system without 5-FU
readout_label: viability at 120 h, 10 µM (%)
State just the number; it will be interpreted in %.

(Q) Entry under review: O=c1[nH]cc(F)c(=O)[nH]1 [5-FU, 5-fluorouracil, reference compound] . Reported viability at 120 h, 10 µM?
(A) 41.6

----------
Overview of reported relative cell viability (AVG) across a group of compounds:
test system: confluent HPEK cells; test: Confluent HPEK cell viability with/without 5-FU; format: cell-based, human; conditions: 0.3 mM; no 5-FU; 120 hours
Please reply with the value in numeric form only.

Illustrative cases are given below, each with its answer.
(Q) Entry under review: `Oc1ncnc2[nH]ncc12` . Reported relative cell viability (AVG)?
(A) 1.1870

(Q) Entry under review: `O=c1nc2[nH][nH]cc-2c(=O)[nH]1` . Reported relative cell viability (AVG)?
(A) 1.0183

(Q) Entry under review: Nc1ncnc2nc[nH]c12 [Adenine, adenine, reference compound] . Reported relative cell viability (AVG)?
(A) 1.3784

--- query ---
(Q) Entry under review: O=c1cc[nH]c(=O)[nH]1 [Uracil, uracil, reference compound] . Reported relative cell viability (AVG)?
(A) 1.3781
